# target_system: T1, human LILRA1 (human, UniProt O75019 17-489)
# T1 construct: Over-expressed on CHO-s cells; also called hLILRA1
# T1 sequence (O75019 17-489 limits assumed): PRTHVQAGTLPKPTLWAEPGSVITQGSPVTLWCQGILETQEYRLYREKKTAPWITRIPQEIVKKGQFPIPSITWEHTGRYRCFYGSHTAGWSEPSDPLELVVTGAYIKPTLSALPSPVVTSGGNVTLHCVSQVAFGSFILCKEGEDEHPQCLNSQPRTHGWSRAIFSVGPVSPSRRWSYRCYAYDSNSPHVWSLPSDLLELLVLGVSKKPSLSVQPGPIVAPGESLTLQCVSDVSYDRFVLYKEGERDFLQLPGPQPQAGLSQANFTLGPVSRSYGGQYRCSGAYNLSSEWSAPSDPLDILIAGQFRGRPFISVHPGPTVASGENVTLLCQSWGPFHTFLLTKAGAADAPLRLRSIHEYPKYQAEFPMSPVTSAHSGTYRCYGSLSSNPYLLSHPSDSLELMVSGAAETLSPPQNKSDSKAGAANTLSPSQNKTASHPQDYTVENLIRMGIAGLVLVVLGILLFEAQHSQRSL
# measurement_description: flow cytometry, LILRA1 CHOs
Parameter binding (fold over iso): see the listing below.
Numeric answer only, unit fold over iso assumed.

J-19.h4 (antibody, human IgG4 S228P, kappa, V domains shown, Humanized, human IgG4 backbone) VH: QVTLKESGPALVKPTHTLTLTCTFSGFSLNTYAMGVSWIRQPPGKALEWLASIWWNGNKYNNPSLKSRLTISKDTSKNQVVLTMTNMDPEDTATFYCAHSRIIRFTDYVMDAWGRGTTVTVSS VL: DIVMTQSPSSLSASVGDTVTITCRASEDIYNDLAWYQQKPGKAPQLLLYNANSLHTGVPSRFSGSGSGTDYTLTISTLQPEDFATYYCQQYYDYPLTFGPGTKVHIKR ... 0.99

Query: Provide only the value of recorded binding (fold over iso) for J-19.h3 (antibody, human IgG4 S228P, kappa, V domains shown, Humanized, human IgG4 backbone) VH: QVTLKESGPSLVKPTQTLTLTCTFSGFSLNTYAMGVSWIRQPPGKALEWLASIWWNGNKYNNPSLKSRLTITKDTSKNQVVLKVTNMDPADTATYYCAHSRIIRFTDYVMDAWGQGTTVTVSS VL: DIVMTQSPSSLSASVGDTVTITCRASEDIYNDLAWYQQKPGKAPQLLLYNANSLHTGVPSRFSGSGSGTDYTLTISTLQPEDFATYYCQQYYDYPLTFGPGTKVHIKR
Reply: 1

Query: Provide only the value of recorded binding (fold over iso) for J-19.h1 (antibody, human IgG4 S228P, kappa, V domains shown, Humanized, human IgG4 backbone) VH: QITLKESGPTLVKPTQTLTLTCTFSGFSLNTYAMGVSWIRQPPGKALEWLASIWWNGNKYNNPSLKSRLTVTKDTSKNQVVLTMTNMDPVDTATYYCAHSRIIRFTDYVMDAWGQGTLVTVSS VL: DIQMTQSPSSLSTSVGDRVTITCRASEDIYNDLAWYQQKPGKAPKLLIYNANSLHTGVASRFSGSGSGTDFTFTISSLQPEDVATYFCQQYYDYPLTFGQGTKLEIKR
Reply: 0.95
